measuredOn: HLA-A*02:01 (Homo sapiens, UniProt P04439, D140Y/D185E/D98H/E176V/E277Q/G131W/G231S/I119V/I121R/I166T/I218V/L300P/L318F/N151K/N90K/P208A/P217A/Q86G/Q94H/R138H/R169H/T345S)
methodDescription: MHC binding assay (UV-ligand exchange, beta2m ELISA, peptide exchange yield)
measurementConditions: binding to HLA-A*02:01 ranged by peptide exchange yield, β2m ELISA
resultType: Peptide exchange (MHC class I binding score)

Consider the following illustrative entries.
91 (LLFNDVQTL; listed as Homo sapiens) [compound 91] : “+++” (≥50=+++)
27 (TLLAHPVTL; listed as Homo sapiens) [compound 27] : “+++” (≥50=+++)
43 (HLGVKVFSV; listed as Homo sapiens) [compound 43] : “++” (≥20%=++)
74 (YIDKDLEYV; listed as Homo sapiens) [compound 74] : “+++” (≥50=+++)
4 (ALDPAAQAFLL; listed as Homo sapiens) [compound 4] : “+++” (≥50=+++)
39 (FLTPSIFII; listed as Homo sapiens) [compound 39] : “++” (≥20%=++)

Notebook: 38 (FLTEAALGDA; listed as Homo sapiens) [compound 38] , Peptide exchange (MHC class I binding score) read as “+++” (≥50=+++)

Notebook: 54 (LTQPGPIASA; listed as Homo sapiens) [compound 54] , Peptide exchange (MHC class I binding score) read as “+++” (≥50=+++)

====

measuredOn: HLA-A*02:01 (Homo sapiens, UniProt P04439, D140Y/D185E/D98H/E176V/E277Q/G131W/G231S/I119V/I121R/I166T/I218V/L300P/L318F/N151K/N90K/P208A/P217A/Q86G/Q94H/R138H/R169H/T345S)
methodDescription: MHC binding assay (UV-ligand exchange, beta2m ELISA, peptide exchange yield)
measurementConditions: binding to HLA-A*02:01 ranged by peptide exchange yield, β2m ELISA
resultType: Peptide exchange (MHC class I binding score)

141 (SLTEQVHSL; listed as Homo sapiens) [compound 141] : “+++” (≥50=+++)
106 (FVWSGTAEA; listed as Homo sapiens) [compound 106] : “+++” (≥50=+++)

====

measuredOn: HLA-A*02:01 (Homo sapiens, UniProt P04439, D140Y/D185E/D98H/E176V/E277Q/G131W/G231S/I119V/I121R/I166T/I218V/L300P/L318F/N151K/N90K/P208A/P217A/Q86G/Q94H/R138H/R169H/T345S)
methodDescription: MHC binding assay (UV-ligand exchange, beta2m ELISA, peptide exchange yield)
measurementConditions: binding to HLA-A*02:01 ranged by peptide exchange yield, β2m ELISA
resultType: Peptide exchange (MHC class I binding score)

Consider the following illustrative entries.
57 (RLSELGITQA; listed as Homo sapiens) [compound 57] : “+++” (≥50=+++)
83 (ALSKEIYVI; listed as Homo sapiens) [compound 83] : “+++” (≥50=+++)
19 (ALWHDAENQTVV; listed as Homo sapiens) [compound 19] : “+++” (≥50=+++)
1 (FVDTRTLL; listed as Homo sapiens) [compound 1] : “++” (≥20%=++)

Notebook: 52 (LLSDPIPEV; listed as Homo sapiens) [compound 52] , Peptide exchange (MHC class I binding score) read as “+++” (≥50=+++)
